Examples of binders with documented Anti-PSMA Fab signal in the presence of PSMA follow.
Target: T1, Anti-PSMA Fab (SEQ ID NOs: 19, 20)
T1 construct: Biotinylated and captured on neutravidin coated plates in the phage ELISA; also called 006 PSMA Fab
Assay comment: phage binding ELISA; plate-captured PSMA Fab pre-incubated with PSMA antigen as competitor, anti-M13 HRP detection
Could you keep your reply to the number by itself?

Solved entries:
                                     binder  reported
0  VEKWCIPPWMCVNS (tested as crude clonal phage supernatant) [Phage-2293]    0.0666
1  EPKWCIPQWMCERF (tested as crude clonal phage supernatant) [Phage-2285]    0.0654
2  VEKWCTPRWMCEGF (tested as crude clonal phage supernatant) [Phage-2287]    0.0841

Need Anti-PSMA Fab signal in the presence of PSMA, item GGKWCKPSWMCFGM (tested as crude clonal phage supernatant) [Phage-2283]
0.108

Also check AEKWCIPPWMCVND (tested as crude clonal phage supernatant) [Phage-2286]
0.0683

And then DVMWCIPPWMCEHR (tested as crude clonal phage supernatant) [Phage-2295] , what is it?
0.106

Then what about the binder IHMLCSPPWMCVGL (tested as crude clonal phage supernatant) [Phage-2294] ?
0.0564

Another binder to look at: NVKWCTPPWMCFLD (tested as crude clonal phage supernatant) [Phage-2296]
0.0656

These entries and their values trace back to patent US20260242478A1.
